Test: Pharmacokinetics of compound 6 in rats (intragastric, intravenous)
Type: in vivo, SD rats
Conditions: male, SD, rat, plasma, po, 10 mg/kg, intragastric 10 mg/kg, individual rat, read-out: Tmax
endpoint_label: Tmax (h)
One number for each entry, in h.

Exercise: Given CS(=O)(CCNc1nonc1/C(=N/O)Nc1ccc(F)c(Br)c1)=NC#N (racemic) , state its recorded Tmax.
Key: 2

----------
Experiment: Pharmacokinetics of compound 6 in rats (intragastric, intravenous)
Type: in vivo, SD rats
Conditions: male, SD, rat, plasma, iv, 1 mg/kg, intravenous 1 mg/kg, mean, read-out: MRT
endpoint_label: MRT (h)
Give bare numbers, in h.

Exercise: Given CS(=O)(CCNc1nonc1/C(=N/O)Nc1ccc(F)c(Br)c1)=NC#N (racemic) , state its recorded MRT.
Key: 1.87

----------
Assay: Pharmacokinetics of compound 6 in rats (intragastric, intravenous)
Type: in vivo, SD rats
Details: male, SD, rat, plasma, po, 10 mg/kg, intragastric 10 mg/kg, mean, read-out: Tmax
endpoint_label: Tmax (h)
Give bare numbers, in h.

Exercise: Given CS(=O)(CCNc1nonc1/C(=N/O)Nc1ccc(F)c(Br)c1)=NC#N (racemic) , state its recorded Tmax.
Key: 1.33

----------
Experiment: Pharmacokinetics of compound 6 in rats (intragastric, intravenous)
Format: in vivo, SD rats
Conditions: male, SD, rat, plasma, iv, 1 mg/kg, intravenous 1 mg/kg, individual rat, read-out: MRT
endpoint_label: MRT (h)
Give bare numbers, in h.

Exercise: Given CS(=O)(CCNc1nonc1/C(=N/O)Nc1ccc(F)c(Br)c1)=NC#N (racemic) , state its recorded MRT.
Key: 1.91

----------
Assay: Pharmacokinetics of compound 6 in rats (intragastric, intravenous)
Assay type: in vivo, SD rats
Settings: male, SD, rat, plasma, iv, 1 mg/kg, intravenous 1 mg/kg, mean, read-out: Vss
endpoint_label: Vd (L/kg)
Numbers only, in L/kg.

Exercise: Given CS(=O)(CCNc1nonc1/C(=N/O)Nc1ccc(F)c(Br)c1)=NC#N (racemic) , state its recorded Vd.
Key: 3.4

----------
Experiment: Pharmacokinetics of compound 6 in rats (intragastric, intravenous)
Assay type: in vivo, SD rats
Conditions: male, SD, rat, plasma, po, 10 mg/kg, intragastric 10 mg/kg, mean
endpoint_label: half-life

Exercise: Given CS(=O)(CCNc1nonc1/C(=N/O)Nc1ccc(F)c(Br)c1)=NC#N (racemic) , state its recorded half-life.
Key: 1.73 h

----------
Assay: Pharmacokinetics of compound 6 in rats (intragastric, intravenous)
Type: in vivo, SD rats
Settings: male, SD, rat, plasma, iv, 1 mg/kg, intravenous 1 mg/kg, mean
endpoint_label: half-life (h)
Numbers only, in h.

Exercise: Given CS(=O)(CCNc1nonc1/C(=N/O)Nc1ccc(F)c(Br)c1)=NC#N (racemic) , state its recorded half-life.
Key: 1.85

----------
Assay: Pharmacokinetics of compound 6 in rats (intragastric, intravenous)
Type: in vivo, SD rats
Conditions: male, SD, rat, plasma, po, 10 mg/kg, intragastric 10 mg/kg, mean, read-out: Cmax
Experimental: 6 SD rats, male, weight 180-200 g, intragastric or intravenous administration of compound 6 (Table 3): […] The concentration of compound 6 in rat plasma was determined by LC/MS/MS. Pharmacokinetic parameters after administration were calculated using the non-compartmental model of the WinNonlin 5.3 software (Pharsight, USA). Peak concentration Cmax and peak time Tmax are measured value; […]
endpoint_label: Cmax (ng/mL)
Answers are plain numbers, in ng/mL.

Exercise: Given CS(=O)(CCNc1nonc1/C(=N/O)Nc1ccc(F)c(Br)c1)=NC#N (racemic) , state its recorded Cmax.
Key: 702

----------
Test: Pharmacokinetics of compound 6 in rats (intragastric, intravenous)
Type: in vivo, SD rats
Details: male, SD, rat, plasma, po, 10 mg/kg, intragastric 10 mg/kg, individual rat
endpoint_label: half-life (h)
Answers are plain numbers, in h.

Exercise: Given CS(=O)(CCNc1nonc1/C(=N/O)Nc1ccc(F)c(Br)c1)=NC#N (racemic) [compound 6] , state its recorded half-life.
Key: 1.58

----------
Assay: Pharmacokinetics of compound 6 in rats (intragastric, intravenous)
Type: in vivo, SD rats
Conditions: male, SD, rat, plasma, po, 10 mg/kg, intragastric 10 mg/kg, individual rat, read-out: MRT
endpoint_label: MRT (h)
Answers are plain numbers, in h.

Exercise: Given CS(=O)(CCNc1nonc1/C(=N/O)Nc1ccc(F)c(Br)c1)=NC#N (racemic) [compound 6] , state its recorded MRT.
Key: 3.35

----------
Experiment: Pharmacokinetics of compound 6 in rats (intragastric, intravenous)
Format: in vivo, SD rats
Details: male, SD, rat, plasma, po, 10 mg/kg, intragastric 10 mg/kg, mean, read-out: MRT
endpoint_label: MRT (h)
One number for each entry, in h.

Exercise: Given CS(=O)(CCNc1nonc1/C(=N/O)Nc1ccc(F)c(Br)c1)=NC#N (racemic) , state its recorded MRT.
Key: 3.36

----------
System: IDO enzyme (Homo sapiens (Human), UniProt P14902) | Read-out: pIC50
Sequence (P14902 whole entry): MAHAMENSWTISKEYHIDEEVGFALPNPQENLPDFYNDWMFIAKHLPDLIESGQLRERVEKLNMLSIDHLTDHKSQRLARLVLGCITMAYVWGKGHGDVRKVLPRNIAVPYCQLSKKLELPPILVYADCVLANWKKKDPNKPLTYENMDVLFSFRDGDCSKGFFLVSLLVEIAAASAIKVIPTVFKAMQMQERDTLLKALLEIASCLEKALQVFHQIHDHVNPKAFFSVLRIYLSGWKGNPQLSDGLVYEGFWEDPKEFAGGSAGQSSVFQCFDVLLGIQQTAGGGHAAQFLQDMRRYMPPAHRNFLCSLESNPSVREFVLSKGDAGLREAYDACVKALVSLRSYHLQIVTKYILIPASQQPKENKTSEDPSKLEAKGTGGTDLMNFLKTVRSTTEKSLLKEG
pIC50: −log10 of the molar value.

Examples with answers:
CS(=N)(=O)CCCCNc1nonc1/C(=N/O)Nc1ccc(F)c(C(F)(F)F)c1 (racemic) [compound 4]: > 4.72
C[S@@](=N)(=O)CCNc1nonc1/C(=N/O)Nc1ccc(F)c(Br)c1 [compound 1A]: > 5.25
CC(C)C(=O)O/N=C(\Nc1ccc(F)c(Br)c1)c1nonc1NCCS(C)(=O)=NC#N (racemic) [compound 14]: 6.92

Exercise: Given CS(=N)(=O)CCCNc1nonc1/C(=N/O)Nc1ccc(F)c(Br)c1 (racemic) [compound 2] , state its recorded pIC50.
Key: > 5.52

----------
Assay: Pharmacokinetics of compound 6 in rats (intragastric, intravenous)
Assay type: in vivo, SD rats
Conditions: male, SD, rat, plasma, iv, 1 mg/kg, intravenous 1 mg/kg, individual rat
endpoint_label: clearance (mL/min/kg)
Give bare numbers, in mL/min/kg.

Exercise: Given CS(=O)(CCNc1nonc1/C(=N/O)Nc1ccc(F)c(Br)c1)=NC#N (racemic) , state its recorded clearance.
Key: 29.7

----------
Experiment: Pharmacokinetics of compound 6 in rats (intragastric, intravenous)
Format: in vivo, SD rats
Conditions: male, SD, rat, plasma, po, 10 mg/kg, intragastric 10 mg/kg, individual rat
endpoint_label: AUC(0-inf) (ng·h/mL)
Numbers only, in ng·h/mL.

Exercise: Given CS(=O)(CCNc1nonc1/C(=N/O)Nc1ccc(F)c(Br)c1)=NC#N (racemic) , state its recorded AUC(0-inf).
Key: 2480

----------
Biological target: IDO enzyme (Homo sapiens (Human))
pIC50: −log10 of the molar value.
Quick rule for you: pIC50 at 7 or higher means Criterion met, lower means Criterion not met.

Example results:
CS(=O)(CCNc1nonc1/C(=N/O)Nc1ccc(F)c(Br)c1)=NC#N (racemic) [compound 6]: Criterion met
CS(=O)(CCNc1nonc1/C(=N/O)Nc1ccc(F)c(Br)c1)=NC#N (single isomer, unassigned) [compound 6A]: Criterion met
CS(=O)(CCCNc1nonc1/C(=N/O)Nc1ccc(F)c(Br)c1)=NC#N (racemic) [compound 9]: Criterion met

Exercise: Quick check, pIC50 >= 7? CCC(C)(C)C(=O)O/N=C(\Nc1ccc(F)c(Br)c1)c1nonc1NCCS(C)(=O)=NC#N (racemic) [compound 13]
Key: Criterion not met

Exercise: Quick check, pIC50 >= 7? CS(=O)(CCNc1nonc1/C(=N/O)Nc1ccc(F)c(Br)c1)=NC#N (single isomer, unassigned) [compound 6B]
Key: Criterion met

Exercise: Quick check, pIC50 >= 7? CS(=N)(=O)CCNc1nonc1/C(=N/O)Nc1ccc(F)c(Br)c1 (racemic) [compound 1]
Key: Criterion met

Exercise: Quick check, pIC50 >= 7? CC(C)(C)C(=O)O/N=C(\Nc1ccc(F)c(Br)c1)c1nonc1NCCS(C)(=O)=NC#N (racemic) [compound 15]
Key: Criterion not met

Exercise: Quick check, pIC50 >= 7? CS(=O)(CCCCNc1nonc1/C(=N/O)Nc1ccc(F)c(Br)c1)=NC#N (racemic) [compound 11]
Key: Criterion met

----------
Test: Pharmacokinetics of compound 6 in rats (intragastric, intravenous)
Type: in vivo, SD rats
Conditions: male, SD, rat, plasma, oral, intragastric 10 mg/kg vs intravenous 1 mg/kg, dose normalized, read-out: F (absolute bioavailability)
endpoint_label: bioavailability (%)
One number for each entry, in %.

Exercise: Given CS(=O)(CCNc1nonc1/C(=N/O)Nc1ccc(F)c(Br)c1)=NC#N (racemic) , state its recorded bioavailability.
Key: 49.8

----------
System: Hela cells
Assay: Test for cell activity (Hela cells, interferon γ, kynurenine read at 480 nm)
Format: cell-based
Settings: human interferon γ 50 ng/mL, 48 h
Recorded IC50 determines the group label, using lower segment: < 2 nM; middle segment: ≥ 2 nM and < 8 nM; upper segment: ≥ 8 nM

Example results:
CS(=O)(CCCCNc1nonc1/C(=N/O)Nc1ccc(F)c(Br)c1)=NC#N (racemic): middle segment
CS(=O)(CCNc1nonc1/C(=N/O)Nc1ccc(F)c(Br)c1)=NC#N (single isomer, unassigned) [compound 6A]: lower segment
CS(=O)(CCCCNc1nonc1/C(=N/O)Nc1ccc(F)c(Cl)c1)=NC#N (racemic): middle segment
CCC(C)(C)C(=O)O/N=C(\Nc1ccc(F)c(Br)c1)c1nonc1NCCS(C)(=O)=NC#N (racemic): upper segment

Exercise: Which IC50 category applies to CS(=N)(=O)CCNc1nonc1/C(=N/O)Nc1ccc(F)c(Br)c1 (racemic) here?
Key: upper segment

Exercise: Which IC50 category applies to c1ccc(-c2cnc[nH]2)cc1 [5-phenyl-1-imidazole, reference compound] here?
Key: upper segment

Exercise: Which IC50 category applies to CS(=O)(CCCNc1nonc1/C(=N/O)Nc1ccc(F)c(Cl)c1)=NC#N (racemic) here?
Key: middle segment

Exercise: Which IC50 category applies to CS(=O)(CCNc1nonc1/C(=N/O)Nc1ccc(F)c(Br)c1)=NC#N (racemic) [compound 6] here?
Key: lower segment

Exercise: Which IC50 category applies to CC(C)(C)C(=O)O/N=C(\Nc1ccc(F)c(Br)c1)c1nonc1NCCS(C)(=O)=NC#N (racemic) here?
Key: upper segment

Exercise: Which IC50 category applies to CS(=O)(CCNc1nonc1/C(=N/O)Nc1ccc(F)c(Br)c1)=NC#N (single isomer, unassigned) [compound 6B] here?
Key: lower segment

Exercise: Which IC50 category applies to CC(C)C(=O)O/N=C(\Nc1ccc(F)c(Br)c1)c1nonc1NCCS(C)(=O)=NC#N (racemic) here?
Key: middle segment

Exercise: Which IC50 category applies to CS(=O)(CCCNc1nonc1/C(=N/O)Nc1ccc(F)c(Br)c1)=NC#N (racemic) here?
Key: middle segment
